- System: U2OS
- PROTOCOL_NOTES: Multiplex assay against U2OS
- Type: toxicity, cell-based
- COND: human, 24 h, 1 µM, compound concentration 1 uM, replicate 1
MEASURED_QUANTITY: Population Mitotic Cells (%)

> print(dat)
                                    compound             measured.quantity  recorded.measurement
 1  Cc1c(Nc2ccc(S(=O)(=O)N3CCN(C)CC3)cc2F)nc2ccc(-c3cnn(C4CC4)c3)cn2c1=O  Population Mitotic Cells (%)                   100
 2  Oc1cccc(-c2nc(N3CCOCC3)c3oc4ncccc4c3n2)c1 [PI-103]  Population Mitotic Cells (%)                    43
 3  CC[C@H](Nc1ncnc2[nH]cnc12)c1nc2cccc(F)c2c(=O)n1-c1ccccc1 [IDELALISIB]  Population Mitotic Cells (%)                    54
 4  CN1C(=O)[C@@H](NC(=O)c2cc3ccccc3[nH]2)N=C(c2ccccc2)c2ccccc21 [DEVAZEPIDE]  Population Mitotic Cells (%)                    68
 5  CCOc1ccn(-c2ccc(F)cc2)c(=O)c1C(=O)Nc1ccc(Oc2ccnc(N)c2Cl)c(F)c1 [BMS-777607]  Population Mitotic Cells (%)                    42
 6  CN(c1cc(C(F)(F)F)nc(OCCC(=O)O)n1)c1cccc2c1CCC2  Population Mitotic Cells (%)                    60
 7  CCCCCNC(=N)N/N=C/c1c[nH]c2ccc(OC)cc12.O=C(O)/C=C\C(=O)O [TEGASEROD MALEATE]  Population Mitotic Cells (%)                    52
 8  Cl.Cn1c2c(c3ccc(Cl)c(Cl)c31)C(C#N)C1(CCNCC1)NC2=O (stereo unspecified)  Population Mitotic Cells (%)                    60
 9  N#Cc1cccc(C(=O)Nc2cc(-c3ccccc3)nn2-c2ccccc2)c1  Population Mitotic Cells (%)                    76
10  Cc1ccc(NC(=O)Nc2cc(C(F)(F)F)ccc2F)cc1Nc1ccc2c(c1)NC(=O)/C2=C\c1ccc[nH]1  Population Mitotic Cells (%)                    25
11  CCCc1cc(C)[nH]c(=O)c1CNC(=O)c1cc(-c2ccc(N3CCN(C(C)C)CC3)nc2)cc2c1cnn2C(C)C  Population Mitotic Cells (%)                    28
12  CC[C@@H]1C(=O)N(C)c2cnc(Nc3ccc(C(=O)NC4CCN(C)CC4)cc3OC)nc2N1C1CCCC1 [BI-2536]  Population Mitotic Cells (%)                    53
13  Cc1c(Nc2ccc(S(=O)(=O)N3CCN(C)CC3)cc2F)nc2ccc(Nc3cnn(C4CC4)c3)cn2c1=O  Population Mitotic Cells (%)                    50
14  C=CC(=O)Nc1cc(-n2c(=O)ccc3cnc4ccc(-c5ccc(NS(C)(=O)=O)cc5)cc4c32)ccc1C  Population Mitotic Cells (%)                    71
15  CC(C)c1cc(Nc2nc(N3CCC[C@H](N)C3)ncc2C(N)=O)cc(C(C)C)n1  Population Mitotic Cells (%)                    42
16  CC(Cc1ccc(O)c(O)c1)C(C)Cc1ccc(O)c(O)c1 (stereo unspecified) [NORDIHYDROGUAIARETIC ACID]  Population Mitotic Cells (%)                    54
17  NC(=O)c1ccc2nc(-c3ccc(C4(N)CCC4)cc3)c(-c3ccccc3)n2n1 [BAY-1125976]  Population Mitotic Cells (%)                    57
18  CCCCN(CC)c1nc(C)nc2c1c(C)cn2-c1c(C)cc(C)cc1C.Cl  Population Mitotic Cells (%)                    72
19  CCOC(=O)CCNc1cc(N2CCc3ccccc3CC2)nc(-c2ccccn2)n1  Population Mitotic Cells (%)                    66
20  Cc1c(P(=S)(c2ccccc2)c2ccccc2)n2ccccc2[n+]1C/C=C/c1ccccc1.[Br-]  Population Mitotic Cells (%)                    45
21  C[C@@H](Oc1cc(-n2cnc3ccc(CN4CCN(C)CC4)cc32)sc1C(N)=O)c1ccccc1C(F)(F)F [GSK-461364]  Population Mitotic Cells (%)                    21
22  CC(/C=C1\SC(=S)N(CCCC(=O)Nc2ccc(C(=O)O)c(O)c2)C1=O)=C\c1ccccc1  Population Mitotic Cells (%)                    46
23  Cl.NC[C@@H]1O[C@H](C23CC4CC(CC(C4)C2)C3)Cc2c1ccc(O)c2O  Population Mitotic Cells (%)                    53
24  N#CCNC(=O)c1ccc(-c2ccnc(Nc3ccc(N4CCOCC4)cc3)n2)cc1 [MOMELOTINIB]  Population Mitotic Cells (%)                    57
25  CC(C)[C@H](CO)Nc1nc(Nc2cccc(Cl)c2)c2ncn(C(C)C)c2n1 [PURVALANOLA]  Population Mitotic Cells (%)                    63
26  Cc1ccc(S(=O)(=O)NC2c3ccccc3Oc3ccccc32)cc1  Population Mitotic Cells (%)                    40

---

- System: U2OS
- PROTOCOL_NOTES: Multiplex assay against U2OS
- Type: toxicity, cell-based
- COND: human, 24 h, 1 µM, compound concentration 1 uM, replicate 1
MEASURED_QUANTITY: Total Cell Count

> print(dat)
                                    compound  measured.quantity  recorded.measurement
 1  Cl.NC[C@@H]1O[C@H](C23CC4CC(CC(C4)C2)C3)Cc2c1ccc(O)c2O   Total Cell Count                   146
 2  CC[C@H](Nc1ncnc2[nH]cnc12)c1nc2cccc(F)c2c(=O)n1-c1ccccc1   Total Cell Count                   210
 3  CC[C@@H]1C(=O)N(C)c2cnc(Nc3ccc(C(=O)NC4CCN(C)CC4)cc3OC)nc2N1C1CCCC1   Total Cell Count                   145
 4  Cc1ccc(S(=O)(=O)NC2c3ccccc3Oc3ccccc32)cc1   Total Cell Count                   132
 5  CCCCCNC(=N)N/N=C/c1c[nH]c2ccc(OC)cc12.O=C(O)/C=C\C(=O)O [TEGASEROD MALEATE]   Total Cell Count                    88
 6  CCOC(=O)CCNc1cc(N2CCc3ccccc3CC2)nc(-c2ccccn2)n1   Total Cell Count                   264
 7  Cc1c(Nc2ccc(S(=O)(=O)N3CCN(C)CC3)cc2F)nc2ccc(-c3cnn(C4CC4)c3)cn2c1=O   Total Cell Count                   173
 8  N#Cc1cccc(C(=O)Nc2cc(-c3ccccc3)nn2-c2ccccc2)c1   Total Cell Count                   137
 9  CC(C)c1cc(Nc2nc(N3CCC[C@H](N)C3)ncc2C(N)=O)cc(C(C)C)n1   Total Cell Count                   206
10  CC(C)[C@H](CO)Nc1nc(Nc2cccc(Cl)c2)c2ncn(C(C)C)c2n1   Total Cell Count                   221
11  Oc1cccc(-c2nc(N3CCOCC3)c3oc4ncccc4c3n2)c1   Total Cell Count                   224
12  CCOc1ccn(-c2ccc(F)cc2)c(=O)c1C(=O)Nc1ccc(Oc2ccnc(N)c2Cl)c(F)c1   Total Cell Count                   196
13  CN1C(=O)[C@@H](NC(=O)c2cc3ccccc3[nH]2)N=C(c2ccccc2)c2ccccc21 [DEVAZEPIDE]   Total Cell Count                   173
14  CCCc1cc(C)[nH]c(=O)c1CNC(=O)c1cc(-c2ccc(N3CCN(C(C)C)CC3)nc2)cc2c1cnn2C(C)C   Total Cell Count                   132
15  CC(/C=C1\SC(=S)N(CCCC(=O)Nc2ccc(C(=O)O)c(O)c2)C1=O)=C\c1ccccc1   Total Cell Count                   151
16  Cc1ccc(NC(=O)Nc2cc(C(F)(F)F)ccc2F)cc1Nc1ccc2c(c1)NC(=O)/C2=C\c1ccc[nH]1   Total Cell Count                   205
17  Cl.Cn1c2c(c3ccc(Cl)c(Cl)c31)C(C#N)C1(CCNCC1)NC2=O (stereo unspecified)   Total Cell Count                   129
18  CC(C)C[C@H](NC(=O)[C@H](Cc1ccccc1)NC(=O)CNC(=O)CNC(=O)[C@@H](N)Cc1ccc(O)cc1)C(=O)O   Total Cell Count                   218
19  CN(c1cc(C(F)(F)F)nc(OCCC(=O)O)n1)c1cccc2c1CCC2   Total Cell Count                   200
20  NC(=O)c1ccc2nc(-c3ccc(C4(N)CCC4)cc3)c(-c3ccccc3)n2n1   Total Cell Count                   273
21  CCCCN(CC)c1nc(C)nc2c1c(C)cn2-c1c(C)cc(C)cc1C.Cl   Total Cell Count                   162
22  N#CCNC(=O)c1ccc(-c2ccnc(Nc3ccc(N4CCOCC4)cc3)n2)cc1   Total Cell Count                  3609
23  C=CC(=O)Nc1cc(-n2c(=O)ccc3cnc4ccc(-c5ccc(NS(C)(=O)=O)cc5)cc4c32)ccc1C   Total Cell Count                   216
24  Cc1c(Nc2ccc(S(=O)(=O)N3CCN(C)CC3)cc2F)nc2ccc(Nc3cnn(C4CC4)c3)cn2c1=O   Total Cell Count                   275
25  Cc1c(P(=S)(c2ccccc2)c2ccccc2)n2ccccc2[n+]1C/C=C/c1ccccc1.[Br-]   Total Cell Count                   174
